Measured Max. Resp. values are reported for all entries that follow.
Tested on: PKM2 (Homo sapiens)
Assay protocol: PKM2 Biochemical Assay
Measurement parameters: % maximum response in a biochemical assay as compared with Fructose 1,6-bisphosphate

In [3]: df
Out[3]:
                                   molecule  observed_value
0  O=C(c1cc(C(F)(F)F)n[nH]1)N(CCN1CCCCC1)Cc1c(Cl)cccc1Cl [Example 180]            100%

**Query** Which Max. Resp. value belongs to Nc1cc(C(=O)N(Cc2ccc(O)cc2F)CC2CCC2)[nH]n1 [Example 3] ?
**Result** 45%

**Query** Which Max. Resp. value belongs to O=C(c1cc(C(F)(F)F)n[nH]1)N(Cc1ccncc1Cl)CC1CCC1 [Example 128] ?
**Result** 75%

**Query** Which Max. Resp. value belongs to O=C(c1cc(C(F)(F)F)n[nH]1)N(CCN1CCCC1)Cc1ccc(Cl)cc1Cl [Example 165] ?
**Result** 50%

**Query** Which Max. Resp. value belongs to O=C(c1cc(C(F)(F)F)n[nH]1)N(CCC1CCS(=O)(=O)C1)Cc1ccccn1 (stereo not shown) [Example 88] ?
**Result** 96%

---

Measured log10(AC50) values are reported for all entries that follow.
Tested on: PKM2 (Homo sapiens)
Assay protocol: PKM2 Biochemical Assay
Measurement parameters: read-out: PKM2 AC50; 2 nM PKM2, 75 μM ADP, 15 μM PEP, Kinase Glo
Hi team, quick reminder: these entries are log10 of AC50 (nM).

**Query** Which log10(AC50) value belongs to `O=C(c1cc(C(F)(F)F)n[nH]1)N(Cc1ccc(O)cc1F)CC1CCC1` ?
**Result** 1.04

**Query** Which log10(AC50) value belongs to `O=C(c1cc(Br)n[nH]1)N(Cc1cccc2[nH]cnc12)CC1CCC1` ?
**Result** 3.13

**Query** Which log10(AC50) value belongs to `O=C(c1cc(C(F)(F)F)n[nH]1)N(Cc1cccc2c1CCN2)CC1CCC1` ?
**Result** 3.23

**Query** Which log10(AC50) value belongs to `O=C(c1cc(C2CC2)n[nH]1)N(Cc1ccc(O)cc1F)CC1CCC1` ?
**Result** 1.96

**Query** Which log10(AC50) value belongs to `O=C(c1cc(C(F)(F)F)n[nH]1)N(Cc1cccc2[nH]ccc12)CC1CCC1` ?
**Result** 2.33

---

Tested on: PKM2 (Homo sapiens, UniProt P14618)
Sequence (P14618 whole entry): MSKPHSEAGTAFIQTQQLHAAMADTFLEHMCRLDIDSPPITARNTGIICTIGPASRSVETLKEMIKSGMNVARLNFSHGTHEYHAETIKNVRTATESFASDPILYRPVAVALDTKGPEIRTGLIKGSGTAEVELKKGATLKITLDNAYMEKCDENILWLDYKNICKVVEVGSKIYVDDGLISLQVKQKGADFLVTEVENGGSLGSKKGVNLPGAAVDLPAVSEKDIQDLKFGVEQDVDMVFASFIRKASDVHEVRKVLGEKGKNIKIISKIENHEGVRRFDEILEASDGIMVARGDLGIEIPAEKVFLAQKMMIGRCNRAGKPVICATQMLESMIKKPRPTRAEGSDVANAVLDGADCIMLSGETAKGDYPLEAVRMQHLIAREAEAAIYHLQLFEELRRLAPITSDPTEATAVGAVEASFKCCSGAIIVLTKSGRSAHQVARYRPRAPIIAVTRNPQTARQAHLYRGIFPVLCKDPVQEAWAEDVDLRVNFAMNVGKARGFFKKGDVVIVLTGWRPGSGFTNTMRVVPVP
Assay protocol: PKM2 Biochemical Assay
Measurement parameters: % maximum response in a biochemical assay as compared with Fructose 1,6-bisphosphate
Lab note: compare Max. Resp. with 90%, writing T if less and F if equal or more.

>>> df
                                   compound  class
0  NCCN(Cc1ccc(O)cc1F)C(=O)c1cc(C(F)(F)F)n[nH]1      F
1  CCN(CC)CCN(Cc1ccccc1F)C(=O)c1cc(C(F)(F)F)n[nH]1      F
2  Nc1cccc(Cl)c1CN(CCN1CCCC1)C(=O)c1cc(C(F)(F)F)n[nH]1      F
3  CO[C@H]1CC[C@H](N(Cc2cccc(F)c2)C(=O)c2cc(C(F)(F)F)n[nH]2)CC1      T
4  O=C(c1cc(C(F)(F)F)n[nH]1)N(CCN1CCCCCC1)Cc1ccc(O)cc1F      F
5  O=C(c1cc(Cl)n[nH]1)N(CCC1CCS(=O)(=O)CC1)Cc1ccccc1F      T
6  O=C(c1cc(C(F)(F)F)n[nH]1)N(CCC1CC1)Cc1ccc(O)cc1F      F
7  Nc1cccc(Cl)c1CN(CCN1CCCOCC1)C(=O)c1cc(C(F)(F)F)n[nH]1      F
8  O=C(c1cc(C(F)(F)F)n[nH]1)N(CCC1CCCO1)Cc1ccccc1F (stereo not shown)      T
9  CC(C)(C)CN(Cc1cccc2[nH]ccc12)C(=O)c1cc(C(F)(F)F)n[nH]1      T

Next up:
**Query** Lab note: Max. Resp. threshold 90%. Does this compound come in strictly under it? `CCN(CC)CCN(Cc1cc(N)ccc1Cl)C(=O)c1cc(C(F)(F)F)n[nH]1`
**Result** F
